- study_system: GABA B receptor (Rattus norvegicus, UniProt O88871+Q9Z0U4)
- Sequence (Q9Z0U4 whole entry): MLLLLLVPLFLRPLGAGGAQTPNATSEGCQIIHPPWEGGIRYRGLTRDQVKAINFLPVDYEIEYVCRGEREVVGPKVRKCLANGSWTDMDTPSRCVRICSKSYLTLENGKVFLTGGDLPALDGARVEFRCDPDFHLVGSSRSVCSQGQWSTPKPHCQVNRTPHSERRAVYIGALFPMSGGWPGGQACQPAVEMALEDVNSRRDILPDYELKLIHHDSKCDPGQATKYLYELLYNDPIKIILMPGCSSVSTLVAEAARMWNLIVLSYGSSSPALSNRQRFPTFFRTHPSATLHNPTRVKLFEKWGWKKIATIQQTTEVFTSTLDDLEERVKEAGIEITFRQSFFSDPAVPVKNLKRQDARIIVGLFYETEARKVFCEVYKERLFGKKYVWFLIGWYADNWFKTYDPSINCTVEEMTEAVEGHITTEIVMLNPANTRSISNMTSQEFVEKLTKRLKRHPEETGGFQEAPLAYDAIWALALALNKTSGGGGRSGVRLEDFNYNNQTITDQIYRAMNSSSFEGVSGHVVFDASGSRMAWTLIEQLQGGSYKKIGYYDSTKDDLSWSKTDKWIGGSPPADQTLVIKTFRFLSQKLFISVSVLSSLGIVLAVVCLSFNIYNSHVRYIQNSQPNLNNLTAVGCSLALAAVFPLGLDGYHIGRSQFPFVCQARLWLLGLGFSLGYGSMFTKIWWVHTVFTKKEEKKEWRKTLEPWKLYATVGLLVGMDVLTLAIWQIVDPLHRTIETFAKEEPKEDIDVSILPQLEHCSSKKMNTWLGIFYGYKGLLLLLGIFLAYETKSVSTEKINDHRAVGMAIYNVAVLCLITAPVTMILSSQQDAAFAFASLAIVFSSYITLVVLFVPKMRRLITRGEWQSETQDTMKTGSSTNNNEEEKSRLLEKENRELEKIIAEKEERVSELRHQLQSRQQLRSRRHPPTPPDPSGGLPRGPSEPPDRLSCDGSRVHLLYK
- Sequence (O88871 whole entry): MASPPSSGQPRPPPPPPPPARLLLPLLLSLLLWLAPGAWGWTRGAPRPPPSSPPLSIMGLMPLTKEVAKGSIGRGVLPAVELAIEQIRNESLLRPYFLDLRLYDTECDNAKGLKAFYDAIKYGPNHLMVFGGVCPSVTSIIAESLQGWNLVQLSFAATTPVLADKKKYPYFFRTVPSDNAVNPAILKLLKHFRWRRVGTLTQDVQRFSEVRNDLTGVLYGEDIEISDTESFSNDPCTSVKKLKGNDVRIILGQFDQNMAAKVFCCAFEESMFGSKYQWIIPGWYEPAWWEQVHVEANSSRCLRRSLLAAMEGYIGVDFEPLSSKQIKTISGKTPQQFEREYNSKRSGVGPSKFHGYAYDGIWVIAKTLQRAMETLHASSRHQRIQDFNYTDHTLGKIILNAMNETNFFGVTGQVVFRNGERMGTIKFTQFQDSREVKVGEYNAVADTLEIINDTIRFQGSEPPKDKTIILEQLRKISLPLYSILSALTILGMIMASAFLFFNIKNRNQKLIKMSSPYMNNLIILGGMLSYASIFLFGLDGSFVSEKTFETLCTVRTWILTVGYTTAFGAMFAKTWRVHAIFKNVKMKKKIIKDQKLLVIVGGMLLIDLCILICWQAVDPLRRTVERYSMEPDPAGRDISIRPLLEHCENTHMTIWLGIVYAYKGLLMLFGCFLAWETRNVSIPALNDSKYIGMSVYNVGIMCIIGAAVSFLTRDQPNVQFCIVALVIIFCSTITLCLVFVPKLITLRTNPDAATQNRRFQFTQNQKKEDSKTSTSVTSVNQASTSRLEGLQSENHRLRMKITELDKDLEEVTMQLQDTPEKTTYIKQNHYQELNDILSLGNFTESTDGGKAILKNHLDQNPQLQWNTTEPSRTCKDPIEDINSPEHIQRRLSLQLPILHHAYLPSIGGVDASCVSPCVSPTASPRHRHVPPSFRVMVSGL
- assay: Displacement of [3H]GABA from Gamma-aminobutyric acid type B receptor
pIC50: −log10 of the molar value.
Listed below: pIC50 values for each entry.

# molecule, pIC50
records = [
    ("NCC[C@H](CC(=O)O)c1ccc(Cl)cc1", 5.13),
    ("NCC[C@@H](CC(=O)O)c1ccc(Cl)cc1", "< 6.85"),
    ("NCC(CCC(=O)O)c1ccc(Cl)cc1 (stereo not drawn)", "< 6.85"),
]
